Tested on: NCI-H322M lung
protocol-details: NCI-60 one-dose screen, 48 h
cond: 10 µM unless noted
About 83,000 compounds went through this panel and 20% of them were active in at least one assay; those are over-represented in the sample as a whole. Calls of active or inactive are those of the source. Rule for the calls: active = growth percent below 10; inactive = the rest.
Outcomes: Yes (active), No (inactive)

[
  {
    "molecule": "COc1cc(-c2nn(C(=O)NS(=O)(=O)c3ccccc3)cc2-c2ccncc2)ccc1Cl",
    "discrete-label": "No"
  },
  {
    "molecule": "CCCCCCCCCCCCCCCCNC(=O)OC(C)C",
    "discrete-label": "Yes"
  },
  {
    "molecule": "Brc1cccc(-c2cc(-c3ccc4c(c3)OCCCO4)[nH]n2)c1",
    "discrete-label": "No"
  },
  {
    "molecule": "Cc1ccc(S(=O)(=O)NCCNc2nccc(-c3c(-c4cccc(N)c4)nc4sccn34)n2)cc1",
    "discrete-label": "No"
  },
  {
    "molecule": "CC(C)(C)OC(=O)NCCc1ccc(N=C=S)cc1",
    "discrete-label": "No"
  },
  {
    "molecule": "C=C1C(=O)O[C@H]2[C@H]1CC/C(Cn1cc(CNC(=O)c3cc4ccccc4[nH]3)nn1)=C\\CC[C@@]1(C)O[C@@H]21",
    "discrete-label": "No"
  },
  {
    "molecule": "Nc1cc2c([nH]c[n+]2CC#CCCl)c(SCC#CCCl)n1",
    "discrete-label": "Yes"
  },
  {
    "molecule": "COC(=O)C(Sc1ccc(Cl)cc1)C1SC(=S)N(Cc2ccccc2)C1=O (centres undefined)",
    "discrete-label": "No"
  },
  {
    "molecule": "COc1ccc(C(=O)c2cc(OC)c(OC)c(OC)c2OC)cc1O",
    "discrete-label": "No"
  },
  {
    "molecule": "ClC(Cl)c1nc(-c2ccccc2)nc2cc(-c3ccccc3)nn12",
    "discrete-label": "No"
  },
  {
    "molecule": "O=C(Nc1ccc2c(c1)OCCO2)C(=O)c1c[nH]c2ccccc12",
    "discrete-label": "No"
  },
  {
    "molecule": "COc1cc(-c2ncn(/C=C\\C(=O)OC(C)C)n2)cc(C(F)(F)F)c1",
    "discrete-label": "Yes"
  },
  {
    "molecule": "Oc1ccccc1/C=N/NC(=S)NC1CC2C=CC1C2 (centres undefined)",
    "discrete-label": "No"
  },
  {
    "molecule": "O=C(O)C1CCCN1 (centres undefined)",
    "discrete-label": "No"
  },
  {
    "molecule": "C=CCSc1n[nH]c(-c2cccs2)n1",
    "discrete-label": "No"
  },
  {
    "molecule": "CC(C)(C)NCCC(O)c1cc2c(Cl)cc(Cl)cc2c2cc(C(F)(F)F)ccc12 (centres undefined)",
    "discrete-label": "Yes"
  },
  {
    "molecule": "COc1ccc(-c2ccc(-c3ccc(C(=N)N)cn3)s2)cc1OC",
    "discrete-label": "No"
  },
  {
    "molecule": "c1ccc(-c2cn(-c3ccccc3)c(-c3ccccc3)n2)cc1",
    "discrete-label": "No"
  },
  {
    "molecule": "COc1cc(C2C3=C(COC3=O)Nc3cc4c(cc32)CCC4)cc2c1OCO2 (centres undefined)",
    "discrete-label": "No"
  },
  {
    "molecule": "CN(C)c1oc(C2OC2c2ccccc2)nc1C#N (centres undefined)",
    "discrete-label": "No"
  },
  {
    "molecule": "NC1=C(/C(N)=N/O)C(c2ccccc2)c2ccc3ccccc3c2O1 (centres undefined)",
    "discrete-label": "No"
  },
  {
    "molecule": "O=C(Nc1ccc2c(c1)OCO2)C(=O)c1c[nH]c2cc(F)ccc12",
    "discrete-label": "No"
  },
  {
    "molecule": "Cn1c2ccc(Br)cc2c2c3c(c4c5ccccc5[nH]c4c21)C(=O)N(O)C3=O",
    "discrete-label": "Yes"
  },
  {
    "molecule": "Clc1ccc2c(NC3CCC(NC4CCCCC4)CC3)ccnc2c1 (centres undefined)",
    "discrete-label": "No"
  },
  {
    "molecule": "COc1cc(-c2nn(-c3cccc(NC(=O)c4ccc(Cl)c(C(F)(F)F)c4)c3)cc2-c2ccncc2)ccc1Cl",
    "discrete-label": "No"
  },
  {
    "molecule": "Cc1ccc2nc(Cl)cc(=O)n2c1",
    "discrete-label": "No"
  },
  {
    "molecule": "CCOC(=O)c1cc(C(=O)c2cc(OC)c(OC)c(OC)c2)n2c1ccc1ccccc12",
    "discrete-label": "No"
  },
  {
    "molecule": "COc1ccc(-c2c(-c3cc(OC)c4c(c3)OCO4)noc2N)cc1",
    "discrete-label": "No"
  },
  {
    "molecule": "COc1ccc(CCNC2=CC(=O)CCC2)cc1OC",
    "discrete-label": "No"
  },
  {
    "molecule": "CC1=NC2=CC=CC3=NC(C(Cl)(Cl)Cl)=NC(=N1)N23",
    "discrete-label": "No"
  },
  {
    "molecule": "CN1C(=O)N(C)C2C1NN=c1s/c(=C\\c3cccnc3)c(=O)n12 (centres undefined)",
    "discrete-label": "No"
  },
  {
    "molecule": "CCN(CC)c1ccc(/C=C2\\Oc3ccc(O)c(I)c3C2=O)cc1",
    "discrete-label": "No"
  },
  {
    "molecule": "COc1ccc(/C=C2/C(=O)NC(SCC(=O)N3CCN(c4cc5c(cc4F)c(=O)c(C(=O)O)cn5C4CC4)CC3)=NC2N)cc1OC (centres undefined)",
    "discrete-label": "No"
  },
  {
    "molecule": "Clc1cc(Cl)cc(-c2ccc(-c3ccc(/C=N/NC4=NCCN4)cc3)s2)c1",
    "discrete-label": "No"
  },
  {
    "molecule": "COc1ccc(C2C(C#N)=C(N)Oc3c2ccc2ccccc32)cc1 (centres undefined)",
    "discrete-label": "No"
  },
  {
    "molecule": "CC[N+](CC)=c1cc2oc3cc(N(C)C)ccc3nc-2cc1C",
    "discrete-label": "Yes"
  },
  {
    "molecule": "COc1cc(-c2nn(-c3cccc(NC(=O)c4cccc(C(F)(F)F)c4)c3)cc2-c2ccncc2)ccc1Cl",
    "discrete-label": "No"
  },
  {
    "molecule": "COc1ccc(N2CCN(Cc3cc(C(=O)/C=C/c4c[nH]c5ccccc45)ccc3O)CC2)cc1",
    "discrete-label": "No"
  },
  {
    "molecule": "CC(C)C(C(=O)NCCN1CCOCC1)N1C(=O)/C(=C/c2ccc(Br)cc2)SC1=S (centres undefined)",
    "discrete-label": "No"
  },
  {
    "molecule": "O=[N+]([O-])c1cc(Cl)c2[nH]c3c(Cl)cc([N+](=O)[O-])cc3c2c1",
    "discrete-label": "Yes"
  },
  {
    "molecule": "c1coc(CNc2ccnc(Nc3ccc(OCCN4CCCCC4)cc3)n2)c1",
    "discrete-label": "No"
  },
  {
    "molecule": "CCc1cnc(=S)n(-c2ccccc2)c1",
    "discrete-label": "No"
  },
  {
    "molecule": "COC(=O)c1cc2cc(-c3ccc(OC)cc3)cnc2[nH]1",
    "discrete-label": "No"
  },
  {
    "molecule": "O=C(O)/C=C/C(=O)c1ccc(Cl)cc1",
    "discrete-label": "No"
  }
]
